# Test system: Coptotermes formosanus
# assayNotes: Termiticidal activity against Coptotermes formosanus placed on 1 % wt/wt compound treated filter paper assessed as termite mortality measured 11 days post compound exposure
# Type: functional
Catalogue of mortality readings, one per entry.
Lab book: enter the figure in %, no units written.

Take a look at these entries with their results.
Hello, I am looking for reported mortality with Coptotermes formosanus for COC1=C(OC)C(=O)C(C)=C(C)C1=O [Aurantiogliocladin] . Could you help?
100

And for `CCCCCCCCCCCCCC1=C(O)C(=O)C=C(O)C1=O` ?
76.7

What do you have for `Cc1ccc(NC2=C(Cl)C(=O)C(Nc3ccc(C)cc3)=C(Cl)C2=O)cc1` ?
52.5

New cases:
Query the reported mortality for Coptotermes formosanus; item: `CC(C)(C)C1=CC(=O)C=CC1=O`
18.3

Then what about the compound `COC1=C(OC)C(=O)C(C/C=C(\C)CC/C=C(\C)CC/C=C(\C)CCC=C(C)C)=C(C)C1=O` ?
11.7

----------
# Tested on: Coptotermes formosanus
# assayNotes: Termiticidal activity against Coptotermes formosanus placed on 0.5 % wt/wt compound treated filter paper assessed as termite mortality measured 11 days post compound exposure
# Format: functional
Attribute: mortality
Remember to put the unit after the number in your answer.

GET /values?readout=mortality&item= `CC1=CC(=O)C(C(C)C)=CC1=O`
6.7%

Next:
Requested read-out: mortality. Entry: `COC1=C(OC)C(=O)C(Cl)=C(Cl)C1=O`
8.8%

Query `CC1=C(Br)C(=O)C(Br)=C(Cl)C1=O` next
22.5%

----------
# System: Coptotermes formosanus
# assayNotes: Termiticidal activity against Coptotermes formosanus placed on 1 % wt/wt compound treated filter paper assessed as termite mortality measured 11 days post compound exposure
# Assay type: functional
Label 0.0 if mortality falls below 10%; label 1.0 in every other case.

Observe how each entry below is paired with its result.
hey, is mortality for this one >= 10%? `COC1=C(Cl)C(=O)C(Cl)=C(OC)C1=O`
0.0

Quick one: CC1=CC(=O)C=CC1=O [Cresoquinone]
1.0

Lookup COC1=CC(=O)C(C)=CC1=O [Coprinin]
1.0

Try the molecule `O=C1C(Cl)=C(Nc2ccc(Cl)cc2)C(=O)C(Cl)=C1Nc1ccc(Cl)cc1`
1.0

Entry `COc1cccc(NC2=C(Cl)C(=O)C(Nc3cccc(OC)c3)=C(Cl)C2=O)c1` please
0.0

More entries:
Is the recorded value of mortality equal to or greater than 10% for this molecule? COC1=CC(=O)C=C(OC)C1=O [2,6-DIMETHOXYQUINONE]
0.0

Record: `CC1=CC(=O)C(C)=C(C)C1=O`
1.0

Repeat with COC1=C(OC)C(=O)C(CCCCCCCCCCO)=C(C)C1=O [IDEBENONE]
0.0

Could you do the same for COC1=C(OC)C(=O)C(C/C=C(\C)CC/C=C(\C)CC/C=C(\C)CC/C=C(\C)CC/C=C(\C)CC/C=C(\C)CC/C=C(\C)CC/C=C(\C)CCC=C(C)C)=C(C)C1=O [Coenzyme Q9] , please?
1.0

----------
# System: Coptotermes formosanus
# assayNotes: Termiticidal activity against Coptotermes formosanus placed on 1 % wt/wt compound treated filter paper assessed as termite mortality measured 11 days post compound exposure
# Format: functional
metricName: mortality

Study these solved cases before continuing.
Given `O=C1C(Cl)=C(Nc2cccc([N+](=O)[O-])c2)C(=O)C(Cl)=C1Nc1cccc([N+](=O)[O-])c1` , state its recorded mortality.
75%

`CCCCCCCCCCCC1=C(O)C(=O)C=C(O)C1=O` , same question.
18.3%

Let us now turn to `Cc1ccc(C2=CC(=O)C=CC2=O)cc1`
16.7%

Lookup `COC1=CC(=O)C(C[P+](c2ccccc2)(c2ccccc2)c2ccccc2)=CC1=O.[Cl-]`
60%

Next up: `CCCCCCCCCCC1=C(C)C(=O)C(OC)=C(OC)C1=O`
75%

Now try `COC1=CC(=O)C=CC1=O` .
21.7%

And then `CC1=CC(=O)C(C(C)(C)C)=CC1=O` , what is it?
21.7%

Follow-up entry: `O=C1C(Cl)=C(Nc2ccccc2)C(=O)C(Cl)=C1Nc1ccccc1`
40%

---
Item `COC1=C(OC)C(=O)C(C)=CC1=O` has what recorded mortality?
81.7%

Another compound to look at: `COc1ccc(NC2=C(Cl)C(=O)C(Nc3ccc(OC)cc3)=C(Cl)C2=O)cc1`
3.8%

Further, for `COC1=CC(=O)C(c2ccccc2)=CC1=O` ?
6.7%
